- test-target: HIV-1 Env of pseudovirus SC422661.8 (HIV-1)
- method: cell-based or functional assay
readout-kind: neutralization IC80 (µg/mL)
Give the value in µg/mL but do not write µg/mL after it.

Prompt: Look at this binder and give its reported neutralization IC80. MS-75 (antibody, V domains shown) VH: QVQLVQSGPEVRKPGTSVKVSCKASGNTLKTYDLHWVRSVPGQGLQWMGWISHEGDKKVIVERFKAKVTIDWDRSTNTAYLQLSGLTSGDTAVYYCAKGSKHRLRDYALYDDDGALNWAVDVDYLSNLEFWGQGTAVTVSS VL: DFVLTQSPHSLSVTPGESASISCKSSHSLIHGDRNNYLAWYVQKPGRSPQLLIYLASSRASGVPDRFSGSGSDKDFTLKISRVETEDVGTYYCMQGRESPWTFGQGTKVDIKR
Response: 9.41

Continuing:
Prompt: Please give the measured neutralization IC80 for this binder: MS-87 (antibody, V domains shown) VH: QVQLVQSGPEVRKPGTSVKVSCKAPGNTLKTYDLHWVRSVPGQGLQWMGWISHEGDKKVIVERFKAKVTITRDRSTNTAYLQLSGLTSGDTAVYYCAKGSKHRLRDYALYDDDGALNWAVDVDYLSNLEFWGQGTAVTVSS VL: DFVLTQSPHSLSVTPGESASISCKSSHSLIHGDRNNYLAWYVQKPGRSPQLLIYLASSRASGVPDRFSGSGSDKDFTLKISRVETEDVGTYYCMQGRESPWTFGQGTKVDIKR
Response: 13.9
